Ref: PubChem BioAssay (Tox21)

Assay: p53 small molecule agonists, cell-based qHTS assay with human liver microsomes: qHTS cell viability counter screen (AID 1963579); note: nearly all actives have a fitted effect of over 45% in size
Settings: p53RE-bla HCT-116 viability, ATP luminescence, 16 h, HLM; series mostly up to 66 µM
Results filed as inconclusive are left out. The source made the active and inactive calls. Calls come from the whole dose curve.

>  <COMPOUND>
NS(=O)(=O)c1cc2c(cc1C(F)(F)F)NC(Cc1ccccc1)NS2(=O)=O (stereo not drawn)

>  <activity change, negative = cytotoxicity>
inactive

$$$$
>  <COMPOUND>
CNCCS(=O)(=O)O

>  <activity change, negative = cytotoxicity>
inactive

$$$$
>  <COMPOUND>
C=CCOCC(O)CO (stereo not drawn)

>  <activity change, negative = cytotoxicity>
inactive

$$$$

====

Biological target: Gonadotropin-releasing hormone receptor (Homo sapiens) (UniProt P30968)
Sequence (P30968 whole entry, looked up): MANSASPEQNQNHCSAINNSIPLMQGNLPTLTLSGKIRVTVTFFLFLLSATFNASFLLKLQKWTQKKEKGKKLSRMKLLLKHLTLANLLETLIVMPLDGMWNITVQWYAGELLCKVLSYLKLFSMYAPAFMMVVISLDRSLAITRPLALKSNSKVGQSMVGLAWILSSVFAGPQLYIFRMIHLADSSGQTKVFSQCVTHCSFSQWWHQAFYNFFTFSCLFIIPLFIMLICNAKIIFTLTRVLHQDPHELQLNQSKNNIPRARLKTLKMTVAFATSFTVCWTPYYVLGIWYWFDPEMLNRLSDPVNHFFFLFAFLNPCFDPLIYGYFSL
Assay: Human gonadotropin-releasing hormone receptor (GnRHR) small molecule agonists, calcium flux assay in GnRHR-HEK293 cells (AID 1920063); note: nearly all actives have a fitted effect of over 35% in size
Conditions: calcium flux fluorescence, agonist mode; series mostly up to 57.6 µM
Activity calls are given as the source filed them. Calls come from the whole dose curve.

>  <MOLECULE>
Clc1ccc2c(c1)Nc1ccccc1S2

>  <STUDY SYSTEM>
Gonadotropin-releasing hormone receptor (Homo sapiens) (UniProt P30968)

>  <activity change>
inactive

$$$$
>  <MOLECULE>
O=C1OC(=O)C2CC=CCC12 (stereo not given)

>  <STUDY SYSTEM>
Gonadotropin-releasing hormone receptor (Homo sapiens) (UniProt P30968)

>  <activity change>
inactive

$$$$
>  <MOLECULE>
C[N+]1([O-])CCOCC1

>  <STUDY SYSTEM>
Gonadotropin-releasing hormone receptor (Homo sapiens) (UniProt P30968)

>  <activity change>
inactive

$$$$

====

Test: Nuclear factor erythroid 2-related factor 2/antioxidant responsive element (Nrf2/ARE) small molecule agonists: luciferase reporter gene qHTS assay in human keratinocytes (AID 1919969); note: nearly all actives have a fitted effect of over 35% in size
Conditions: KeratinoSens HaCaT ARE-luciferase, luminescence, 24 h; series mostly up to 92.4 µM
Results filed as inconclusive are left out. Activity calls are given as the source filed them. Calls come from the whole dose curve.
Your response should consist of one outcome taken from active, inactive

Answered examples (6):
>  <MOLECULE>
CCc1ccc(Br)cc1

>  <ASSIGNED CATEGORY>
inactive

$$$$
>  <MOLECULE>
CCN(CC)c1ccc(C(=O)c2ccccc2C(=O)O)c(O)c1

>  <ASSIGNED CATEGORY>
inactive

$$$$
>  <MOLECULE>
COc1ccc(Br)c(C)c1

>  <ASSIGNED CATEGORY>
inactive

$$$$
>  <MOLECULE>
CC(=O)SC[C@@H](C)C(=O)N1CCC[C@H]1C(=O)N[C@@H](Cc1ccccc1)C(=O)O

>  <ASSIGNED CATEGORY>
inactive

$$$$
>  <MOLECULE>
COC(C)(C)CCO

>  <ASSIGNED CATEGORY>
inactive

$$$$
>  <MOLECULE>
Cc1cn([C@H]2C[C@H](F)[C@@H](CO)O2)c(=O)[nH]c1=O

>  <ASSIGNED CATEGORY>
inactive

$$$$

## Input What was the test verdict on CCCCCCCCCCCCCCCCCCOCC(O)CO (stereo not given) ?
## Output inactive

## Input What was the test verdict on `O=Cc1cccc([N+](=O)[O-])c1` ?
## Output inactive

## Input What was the test verdict on `O=C(O)c1ccc(OCCCOc2ccc(C(=O)O)cc2)cc1` ?
## Output inactive

====

Assay: Nuclear factor erythroid 2-related factor 2/antioxidant responsive element (Nrf2/ARE) small molecule agonists: luciferase reporter gene qHTS assay in human keratinocytes (AID 1919969); note: nearly all actives have a fitted effect of over 35% in size
Details: KeratinoSens HaCaT ARE-luciferase, luminescence, 24 h; series mostly up to 92.4 µM
Inconclusive results are not listed. Calls of active or inactive are those of the source. Calls come from the whole dose curve.
Your response should consist of one outcome taken from True for active, False for inactive

Answered examples (3):
>  <COMPOUND>
CCOC(=O)c1c(C)n(C)c2ccc(O)cc12

>  <ASSIGNED CATEGORY>
False

$$$$
>  <COMPOUND>
O=C(O)/C=C/C(=O)O

>  <ASSIGNED CATEGORY>
False

$$$$
>  <COMPOUND>
CC(CO)CO

>  <ASSIGNED CATEGORY>
False

$$$$

## Input What was the test verdict on `C[Si]1(C)O[Si](C)(C)O[Si](C)(C)O[Si](C)(C)O[Si](C)(C)O1` ?
## Output False

## Input What was the test verdict on `CC/C=C\CCOC(=O)CCCCC` ?
## Output False

## Input What was the test verdict on CC1=CCC(O)(C(C)C)CC1 (configuration not stated) ?
## Output False

## Input What was the test verdict on `CCC(=O)OCc1ccccc1` ?
## Output False

## Input What was the test verdict on `CCCCOCCOCCOC(=O)CCCCC(=O)OCCOCCOCCCC` ?
## Output False

## Input What was the test verdict on `N=C(N)c1ccccc1` ?
## Output False

## Input What was the test verdict on `CC(C)Nc1ccccc1` ?
## Output False

## Input What was the test verdict on `CN=C(NC#N)NCCSCc1nc[nH]c1C` ?
## Output False

## Input What was the test verdict on `Cc1ccc(C(=O)c2cc(O)c(O)c([N+](=O)[O-])c2)cc1` ?
## Output False

====

Assay: Nuclear factor erythroid 2-related factor 2/antioxidant responsive element (Nrf2/ARE) small molecule agonists: luciferase reporter gene qHTS assay in human keratinocytes (AID 1919969); note: nearly all actives have a fitted effect of over 35% in size
Details: KeratinoSens HaCaT ARE-luciferase, luminescence, 24 h; series mostly up to 92.4 µM
Records with an inconclusive call do not appear. Calls of active or inactive are those of the source. Calls come from the whole dose curve.
Your response should consist of one outcome taken from active, inactive

Answered examples (4):
>  <MOLECULE>
CC(O)C(C)O (configuration not stated)

>  <ASSIGNED CATEGORY>
inactive

$$$$
>  <MOLECULE>
COc1cc(C(=S)N2CCOCC2)ccc1O

>  <ASSIGNED CATEGORY>
inactive

$$$$
>  <MOLECULE>
Cc1cccc(N(C)C)c1

>  <ASSIGNED CATEGORY>
inactive

$$$$
>  <MOLECULE>
O=C(C(=O)c1ccccc1)c1ccccc1

>  <ASSIGNED CATEGORY>
inactive

$$$$

## Input What was the test verdict on `OCCOc1ccc(OCCO)cc1` ?
## Output inactive

## Input What was the test verdict on `CCC(C)=O` ?
## Output inactive

## Input What was the test verdict on CC(=O)/C=C/C1C(C)=CCC(C)C1(C)C (configuration not stated) ?
## Output inactive

## Input What was the test verdict on `C=C(C)C(=O)OCCCCCCCC(C)C` ?
## Output inactive

====

Assay: Nuclear factor erythroid 2-related factor 2/antioxidant responsive element (Nrf2/ARE) small molecule agonists: luciferase reporter gene qHTS assay in human keratinocytes (AID 1919969); note: nearly all actives have a fitted effect of over 35% in size
Settings: KeratinoSens HaCaT ARE-luciferase, luminescence, 24 h; series mostly up to 92.4 µM
Results filed as inconclusive are left out. Calls of active or inactive are those of the source. Calls follow the shape of the full dose curve.
PROPERTY NAME: outcome

Guide cases for outcome, answers given:
>  <COMPOUND>
Cc1ccc(C)cc1

>  <outcome>
inactive

$$$$
>  <COMPOUND>
CC(C)(O)C(=O)O

>  <outcome>
inactive

$$$$
>  <COMPOUND>
CCC(C)NC(N)=O (stereo not given)

>  <outcome>
inactive

$$$$
>  <COMPOUND>
C=CCOCC(CC)(CO)COCC=C

>  <outcome>
inactive

$$$$

Here's the next entry for you.
## Input State the recorded outcome for this entry: CC1CC(O)CC(C)(C)C1 (stereo not given)
## Output inactive

====

Experiment: p53 small molecule agonists, cell-based qHTS assay with human liver microsomes: qHTS cell viability counter screen (AID 1963579); note: nearly all actives have a fitted effect of over 45% in size
Conditions: p53RE-bla HCT-116 viability, ATP luminescence, 16 h, HLM; series mostly up to 66 µM
Results filed as inconclusive are left out. Calls of active or inactive are those of the source. The call rests on the fitted dose curve.
PROPERTY NAME: activity change, negative = cytotoxicity

>  <COMPOUND>
CCCOCCC

>  <activity change, negative = cytotoxicity>
inactive

$$$$
>  <COMPOUND>
CC(C)CCCCCOC(=O)CCS

>  <activity change, negative = cytotoxicity>
inactive

$$$$
>  <COMPOUND>
CC(=O)S[C@H](C(=O)N[C@H]1Cc2ccccc2[C@H]2CCC[C@@H](C(=O)O)N2C1=O)C(C)C

>  <activity change, negative = cytotoxicity>
inactive

$$$$
>  <COMPOUND>
CC(C)=CCCC(C)CC=O (configuration not stated)

>  <activity change, negative = cytotoxicity>
inactive

$$$$

## Input State the recorded activity change, negative = cytotoxicity for this entry: `ClC(c1ccccc1)(c1ccccc1)c1ccccc1`
## Output inactive

## Input State the recorded activity change, negative = cytotoxicity for this entry: `O=[N+]([O-])c1ccc2nc[nH]c2c1`
## Output inactive

## Input State the recorded activity change, negative = cytotoxicity for this entry: `c1ccc2c(c1)ccc1ncccc12`
## Output inactive

## Input State the recorded activity change, negative = cytotoxicity for this entry: `Nc1cc(C(Cl)=C(Cl)Cl)c(S(N)(=O)=O)cc1S(N)(=O)=O`
## Output inactive

## Input State the recorded activity change, negative = cytotoxicity for this entry: O=C1OC(CN2CCOCC2)CN1/N=C/c1ccc([N+](=O)[O-])o1 (configuration not stated)
## Output inactive

## Input State the recorded activity change, negative = cytotoxicity for this entry: CCC(=O)OC(C)(C)C1CC=C(C)CC1 (configuration not stated)
## Output inactive

## Input State the recorded activity change, negative = cytotoxicity for this entry: CC(C)C1CCC(O)CC1 (configuration not stated)
## Output inactive

## Input State the recorded activity change, negative = cytotoxicity for this entry: `COc1cc(C(=S)N2CCOCC2)ccc1O`
## Output inactive

## Input State the recorded activity change, negative = cytotoxicity for this entry: `CC(=O)c1cc(C)oc1C`
## Output inactive

## Input State the recorded activity change, negative = cytotoxicity for this entry: `Cc1cc(CCC(=O)OCCOCCOCCOC(=O)CCc2cc(C)c(O)c(C(C)(C)C)c2)cc(C(C)(C)C)c1O`
## Output inactive

## Input State the recorded activity change, negative = cytotoxicity for this entry: CCCCC(CC)COCC1CO1 (configuration not stated)
## Output inactive

## Input State the recorded activity change, negative = cytotoxicity for this entry: CC1CC(=O)CC(C)(C)C1 (configuration not stated)
## Output inactive

## Input State the recorded activity change, negative = cytotoxicity for this entry: `CC(C)CCCCCCCCCCCCCCC(=O)O`
## Output inactive

## Input State the recorded activity change, negative = cytotoxicity for this entry: CCCCC(C)C(=O)O (configuration not stated)
## Output inactive
